Form field: relative viability (one value per entry).
# Test system: HCC-78
# Assay Remarks: relative viability (nuclei count vs DMSO), 5 days (fraction); higher = more cells survive
# Stated Conditions: first compound 8 µM

Compound	Target Entity	relative viability
C=C1C(=O)O[C@@H](CCCCCCCC)[C@@H]1C(=O)O [C-75] + O=C(c1cc(Cc2n[nH]c(=O)c3ccccc23)ccc1F)N1CCN(C(=O)C2CC2)CC1 [Olaparib] (partner 8 µM)	HCC-78	0.823
C=C1C(=O)O[C@@H](CCCCCCCC)[C@@H]1C(=O)O [C-75] + CC(C)C[C@H](NC(=O)[C@H](Cc1ccccc1)NC(=O)c1cnccn1)B(O)O [Bortezomib] (partner 0.002 µM)	HCC-78	0.472
C=C1C(=O)O[C@@H](CCCCCCCC)[C@@H]1C(=O)O [C-75] + Cc1cc(Nc2cc(N3CCN(C)CC3)nc(Sc3ccc(NC(=O)C4CC4)cc3)n2)n[nH]1 [Tozasertib] (partner 0.1 µM)	HCC-78	0.444
C=C1C(=O)O[C@@H](CCCCCCCC)[C@@H]1C(=O)O [C-75] + CS(=O)(=O)CCNCc1ccc(-c2ccc3ncnc(Nc4ccc(OCc5cccc(F)c5)c(Cl)c4)c3c2)o1 [Lapatinib] (partner 2 µM)	HCC-78	0.756

----------
# Test system: NCI-H1355
# Assay Remarks: relative viability (nuclei count vs DMSO), 5 days (fraction); higher = more cells survive
# Stated Conditions: first compound 0.01581 µM

Compound	relative viability
CC1(C)CCC(c2ccc(Cl)cc2)=C(CN2CCN(c3ccc(C(=O)NS(=O)(=O)c4ccc(N[C@H](CCN5CCOCC5)CSc5ccccc5)c(S(=O)(=O)C(F)(F)F)c4)cc3)CC2)C1 [Navitoclax] + COc1cc2c(Oc3ccc(NC(=O)C4(C(=O)Nc5ccc(F)cc5)CC4)cc3F)ccnc2cc1OCCCN1CCOCC1 [Foretinib] (partner 0.25 µM)	0.951
CC1(C)CCC(c2ccc(Cl)cc2)=C(CN2CCN(c3ccc(C(=O)NS(=O)(=O)c4ccc(N[C@H](CCN5CCOCC5)CSc5ccccc5)c(S(=O)(=O)C(F)(F)F)c4)cc3)CC2)C1 [Navitoclax] + CS(=O)(=O)CCNCc1ccc(-c2ccc3ncnc(Nc4ccc(OCc5cccc(F)c5)c(Cl)c4)c3c2)o1 [Lapatinib] (partner 2 µM)	0.956
CC1(C)CCC(c2ccc(Cl)cc2)=C(CN2CCN(c3ccc(C(=O)NS(=O)(=O)c4ccc(N[C@H](CCN5CCOCC5)CSc5ccccc5)c(S(=O)(=O)C(F)(F)F)c4)cc3)CC2)C1 [Navitoclax] + N=C(N)NC(=N)NCCc1ccccc1 [Phenformin] (partner 250 µM)	0.467

----------
# Tested on: HCC-366
# Assay Remarks: relative viability (nuclei count vs DMSO), 5 days (fraction); higher = more cells survive
# Stated Conditions: first compound 2.53 µM
The label is fulfilled for relative viability below 0.6 and not fulfilled for relative viability equal to or exceeding 0.6.

Compound	Target Entity	Class Assignment
Oc1nc(-c2ccc(C(F)(F)F)cc2)nc2c1CSCC2 [XAV939] + O=C(CCCCCCC(=O)Nc1ccccc1)NO [Vorinostat] (partner 1 µM)	HCC-366	fulfilled
C=C1C(=O)O[C@@H](CCCCCCCC)[C@@H]1C(=O)O [C-75] + O=C(CCCCCCC(=O)Nc1ccccc1)NO [Vorinostat] (partner 1 µM)	HCC-366	fulfilled
Oc1nc(-c2ccc(C(F)(F)F)cc2)nc2c1CSCC2 [XAV939] + CS(=O)(=O)CCNCc1ccc(-c2ccc3ncnc(Nc4ccc(OCc5cccc(F)c5)c(Cl)c4)c3c2)o1 [Lapatinib] (partner 2 µM)	HCC-366	not fulfilled
C=C1C(=O)O[C@@H](CCCCCCCC)[C@@H]1C(=O)O [C-75] + CS(=O)(=O)N1CCN(Cc2cc3nc(-c4cccc5[nH]ncc45)nc(N4CCOCC4)c3s2)CC1 [Pictilisib] (partner 1 µM)	HCC-366	fulfilled
Oc1nc(-c2ccc(C(F)(F)F)cc2)nc2c1CSCC2 [XAV939] + CC(C)C[C@H](NC(=O)[C@H](Cc1ccccc1)NC(=O)c1cnccn1)B(O)O [Bortezomib] (partner 0.002 µM)	HCC-366	not fulfilled
C=C1C(=O)O[C@@H](CCCCCCCC)[C@@H]1C(=O)O [C-75] + CC(=O)Nc1cccc(-n2c(=O)n(C3CC3)c(=O)c3c(Nc4ccc(I)cc4F)n(C)c(=O)c(C)c32)c1 [Trametinib] (partner 0.02 µM)	HCC-366	fulfilled
Oc1nc(-c2ccc(C(F)(F)F)cc2)nc2c1CSCC2 [XAV939] + CC(=O)Nc1cccc(-n2c(=O)n(C3CC3)c(=O)c3c(Nc4ccc(I)cc4F)n(C)c(=O)c(C)c32)c1 [Trametinib] (partner 0.02 µM)	HCC-366	fulfilled

----------
# System: NCI-H1650
# Assay Remarks: relative viability (nuclei count vs DMSO), 5 days (fraction); higher = more cells survive
# Stated Conditions: first compound 8 µM
Measure: relative viability

Molecule	Target Entity	Recorded Result
C=C1C(=O)O[C@@H](CCCCCCCC)[C@@H]1C(=O)O [C-75] + Nc1ncn([C@H]2C[C@H](O)[C@@H](CO)O2)c(=O)n1 [Decitabine] (partner 2 µM)	NCI-H1650	0.387
C=C1C(=O)O[C@@H](CCCCCCCC)[C@@H]1C(=O)O [C-75] + CS(=O)(=O)CCNCc1ccc(-c2ccc3ncnc(Nc4ccc(OCc5cccc(F)c5)c(Cl)c4)c3c2)o1 [Lapatinib] (partner 2 µM)	NCI-H1650	1.09
C=C1C(=O)O[C@@H](CCCCCCCC)[C@@H]1C(=O)O [C-75] + C[C@@H](Oc1cc(-c2cnn(C3CCNCC3)c2)cnc1N)c1c(Cl)ccc(F)c1Cl [Crizotinib] (partner 1 µM)	NCI-H1650	1.21
C=C1C(=O)O[C@@H](CCCCCCCC)[C@@H]1C(=O)O [C-75] + O=C(c1cc(Cc2n[nH]c(=O)c3ccccc23)ccc1F)N1CCN(C(=O)C2CC2)CC1 [Olaparib] (partner 8 µM)	NCI-H1650	0.818

----------
relative viability values, listed per item
# Test system: SK-LU-1
# Assay Remarks: relative viability (nuclei count vs DMSO), 5 days (fraction); higher = more cells survive
# Stated Conditions: first compound 0.8 µM
Measure: relative viability

Compound	Target Entity	Measure	Recorded Result
C=C1C(=O)O[C@@H](CCCCCCCC)[C@@H]1C(=O)O [C-75] + CC(=O)Nc1cccc(-n2c(=O)n(C3CC3)c(=O)c3c(Nc4ccc(I)cc4F)n(C)c(=O)c(C)c32)c1 [Trametinib] (partner 0.02 µM)	SK-LU-1	relative viability	0.49
C=C1C(=O)O[C@@H](CCCCCCCC)[C@@H]1C(=O)O [C-75] + C[C@]1(O)C[C@@H](c2nc(-c3ccc4ccc(-c5ccccc5)nc4c3)c3c(N)nccn32)C1 [Linsitinib] (partner 1 µM)	SK-LU-1	relative viability	1.05
C=C1C(=O)O[C@@H](CCCCCCCC)[C@@H]1C(=O)O [C-75] + Cc1cc(Nc2cc(N3CCN(C)CC3)nc(Sc3ccc(NC(=O)C4CC4)cc3)n2)n[nH]1 [Tozasertib] (partner 0.1 µM)	SK-LU-1	relative viability	0.357
Oc1nc(-c2ccc(C(F)(F)F)cc2)nc2c1CSCC2 [XAV939] + N=C(N)NC(=N)NCCc1ccccc1 [Phenformin] (partner 250 µM)	SK-LU-1	relative viability	0.447

----------
Measured relative viability of individual entries
# Test system: UMC-11
# Assay Remarks: relative viability (nuclei count vs DMSO), 5 days (fraction); higher = more cells survive
# Stated Conditions: first compound 1 µM

Compound	relative viability
NC(=O)Nc1cc(-c2cccc(F)c2)sc1C(=O)N[C@H]1CCCNC1 [AZD7762] + Cc1nc(NC(=O)N2CCC[C@H]2C(N)=O)sc1-c1ccnc(C(C)(C)C(F)(F)F)c1 [Alpelisib] (partner 2 µM)	0.653
NC(=O)Nc1cc(-c2cccc(F)c2)sc1C(=O)N[C@H]1CCCNC1 [AZD7762] + Nc1ncn([C@H]2C[C@H](O)[C@@H](CO)O2)c(=O)n1 [Decitabine] (partner 2 µM)	0.305
NC(=O)Nc1cc(-c2cccc(F)c2)sc1C(=O)N[C@H]1CCCNC1 [AZD7762] + Cc1cc(Nc2cc(N3CCN(C)CC3)nc(Sc3ccc(NC(=O)C4CC4)cc3)n2)n[nH]1 [Tozasertib] (partner 0.1 µM)	0.191

----------
# relative viability listing for each entry below
# System: UMC-11
# Assay Remarks: relative viability (nuclei count vs DMSO), 5 days (fraction); higher = more cells survive
# Stated Conditions: first compound 0.05 µM

Compound	relative viability
CC1(C)CCC(c2ccc(Cl)cc2)=C(CN2CCN(c3ccc(C(=O)NS(=O)(=O)c4ccc(N[C@H](CCN5CCOCC5)CSc5ccccc5)c(S(=O)(=O)C(F)(F)F)c4)cc3)CC2)C1 [Navitoclax] + O=C(CCCCCCC(=O)Nc1ccccc1)NO [Vorinostat] (partner 1 µM)	0.39
CC1(C)CCC(c2ccc(Cl)cc2)=C(CN2CCN(c3ccc(C(=O)NS(=O)(=O)c4ccc(N[C@H](CCN5CCOCC5)CSc5ccccc5)c(S(=O)(=O)C(F)(F)F)c4)cc3)CC2)C1 [Navitoclax] + O=C(c1cc(Cc2n[nH]c(=O)c3ccccc23)ccc1F)N1CCN(C(=O)C2CC2)CC1 [Olaparib] (partner 8 µM)	0.346
CC1(C)CCC(c2ccc(Cl)cc2)=C(CN2CCN(c3ccc(C(=O)NS(=O)(=O)c4ccc(N[C@H](CCN5CCOCC5)CSc5ccccc5)c(S(=O)(=O)C(F)(F)F)c4)cc3)CC2)C1 [Navitoclax] + CS(=O)(=O)CCNCc1ccc(-c2ccc3ncnc(Nc4ccc(OCc5cccc(F)c5)c(Cl)c4)c3c2)o1 [Lapatinib] (partner 2 µM)	0.747
CC1(C)CCC(c2ccc(Cl)cc2)=C(CN2CCN(c3ccc(C(=O)NS(=O)(=O)c4ccc(N[C@H](CCN5CCOCC5)CSc5ccccc5)c(S(=O)(=O)C(F)(F)F)c4)cc3)CC2)C1 [Navitoclax] + COc1cc2c(Oc3ccc(NC(=O)C4(C(=O)Nc5ccc(F)cc5)CC4)cc3F)ccnc2cc1OCCCN1CCOCC1 [Foretinib] (partner 0.25 µM)	1.18
